- MEASUREMENT TARGET: T1, human ICOS (human, UniProt Q9Y6W8 21-199)
- T1 construct: The cell that carries it is named under assay; also called huICOS; CD278
- T1 sequence: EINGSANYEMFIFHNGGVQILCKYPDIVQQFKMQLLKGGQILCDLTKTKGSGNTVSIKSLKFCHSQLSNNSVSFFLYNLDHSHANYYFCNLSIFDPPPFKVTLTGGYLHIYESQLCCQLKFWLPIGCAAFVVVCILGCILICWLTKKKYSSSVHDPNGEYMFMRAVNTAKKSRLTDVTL
- EXPERIMENT DESCRIPTION: flow cytometry, CHO cells expressing human ICOS
OBSERVED PROPERTY: Max (Log10(MFI))

Answered cases to consult:
Challenge: Specify reported Max (Log10(MFI)) for the binder shown: Molecule 35 (ICOS H1138_3) (antibody, human IgG1, kappa, L234A L235A, V domains shown, Human IgG format) VH: EVQLLESGGGLVQPGGSLRLSCAASGFDLSSYYYMSWVRQAPGKGLEWVSSIYADIYGGTTHYASWAKGRFTISKTSSTTLYLQMNSLRAEDTAVYFCAREDGSRYGGSGYYNLWGQGTLVTVSS VL: AIQMTQSPSSLSASVGDRVTITCRASQNIYSNLAWYQQKPGKPPKLLIYAASYLTSGVSSRFSGSGSGTDFTLTISSLQPEDFATYYCQQGHTTDNIDNAFGGGTKVEIKR
Response given: 4.55 Log10(MFI)

Challenge: Specify reported Max (Log10(MFI)) for the binder shown: Molecule 27 (ICOS H009v1_3) (antibody, human IgG1, kappa, L234A L235A, V domains shown, Human IgG format) VH: EVQLVESGGGLVQPGRSLRLSCTASGFTFSDYWMNWVRQAPGKGLEWVAQIRNKPYNYETYYAASVKGRFTISRDDSKSIAYLQMNSLKTEDTAVYYCTWPRLRSSDWHFDVWGKGTTVTVSS VL: DIQMTQSPSSLSASVGDRVTITCQASQDINKNIAWYQQKPGKAPKLLIWYTSTLQTGVPSRFSGSGSGTDFTFTISSLQPEDIATYYCLQFDNLYTFGQGTKLEIKR
Response given: 6.85 Log10(MFI)

// next item, Max (Log10(MFI)) requested
Challenge: Specify reported Max (Log10(MFI)) for the binder shown: Molecule 30 (ICOS H1143v2_2) (antibody, human IgG1, kappa, L234A L235A, V domains shown, Human IgG format) VH: EVQLLESGGGLVQPGGSLRLSCAASGFDFSSAYDMSWVRQAPGKGLEWVSVIYYGDGITYYADSVKGRFTISKTSSKTTLYLQMNSLRAEDTAVYFCARGAFLGSSYYLSLWGQGTLVTVSS VL: DIQMTQSPSSLSASVGDRVTITCRASENIYNWLAWYQQKPGKAPKLLIYDASKLASGVPSRFSGSGSGTDFTLTISSLQPEDFATYYCQQAYTYGNIDNAFGGGTKVEIKR
Response given: 2.75 Log10(MFI)

Where these numbers come from: patent US20220098305A1
